Target: T1, Ang2 (UniProt O15123 19-496)
T1 sequence: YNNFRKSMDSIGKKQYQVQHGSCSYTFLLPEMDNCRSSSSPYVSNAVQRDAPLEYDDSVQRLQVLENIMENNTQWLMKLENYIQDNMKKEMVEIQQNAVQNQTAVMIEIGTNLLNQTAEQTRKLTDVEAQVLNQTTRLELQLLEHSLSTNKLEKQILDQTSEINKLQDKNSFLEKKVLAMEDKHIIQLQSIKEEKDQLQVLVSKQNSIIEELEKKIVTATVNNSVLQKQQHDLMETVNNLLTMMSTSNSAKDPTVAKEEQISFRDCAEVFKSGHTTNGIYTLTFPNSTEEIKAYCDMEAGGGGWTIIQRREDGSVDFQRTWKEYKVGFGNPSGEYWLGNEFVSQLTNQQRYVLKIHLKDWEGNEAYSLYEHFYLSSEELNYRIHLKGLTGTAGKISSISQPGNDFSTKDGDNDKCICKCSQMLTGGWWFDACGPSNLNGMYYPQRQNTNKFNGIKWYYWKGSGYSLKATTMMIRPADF
Assay: SPR
VALUE TYPE: Kd (nM)
Express the result in nM but write the number alone.

**Q:** In one line, give reported Kd of the entry LWDDCYFFPNPPHCYNSP (designed binder) [MBP-a1] .
**A:** 22.2
